Could you please report measured Ki for the items listed next?
biological target: T1, human melanocortin-4 receptor (human, UniProt P32245 1-332); assay: [I125]-NDP-α-MSH competition, hMC4-R HEK-293 membranes
T1 construct: whole, on cells; functional assay: HEK293-T-REx-MC4-R cells induced with 0.1 or 10 ng/mL doxycycline; also called hMC4-R; MC4-R
T1 sequence (P32245 whole entry): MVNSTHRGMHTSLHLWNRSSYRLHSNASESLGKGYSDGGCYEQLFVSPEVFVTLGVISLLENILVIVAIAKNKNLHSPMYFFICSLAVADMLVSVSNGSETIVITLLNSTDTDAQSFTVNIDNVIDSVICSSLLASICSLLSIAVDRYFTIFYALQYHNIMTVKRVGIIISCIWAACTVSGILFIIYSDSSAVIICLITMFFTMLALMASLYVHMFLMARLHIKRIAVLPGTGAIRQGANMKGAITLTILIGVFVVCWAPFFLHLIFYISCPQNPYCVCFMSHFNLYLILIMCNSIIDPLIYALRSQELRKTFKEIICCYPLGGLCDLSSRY
Positions of bridges follow the written chain, without caps; N, C: chain ends. Non-standard residues stand in square brackets, D forms with d. dPhe(3-Me) = Cc1cccc(C[C@@H](N)C(=O)O)c1; dPhe(2-Me) = Cc1ccccc1C[C@@H](N)C(=O)O; dPhe(4-F) = N[C@H](Cc1ccc(F)cc1)C(=O)O; dPhe(2-F) = N[C@H](Cc1ccccc1F)C(=O)O; Orn = NCCC[C@H](N)C(=O)O
Write the number in nM without appending the unit.

Which Ki value belongs to Ac-REP[dPhe(4-F)]RW[Orn]-NH2 (lactam 2-7; also: acetate salt, acetate salt form; also called Ex 67) [Ac-Arg-cyclo(Glu-Pro-D-Phe(4-F)-Arg-Trp-Orn)-NH2] ?
5

Would you mind doing Ac-R[Orn]N[dPhe(2-Me)]RWE-NH2 (lactam 2-7, also called No. 74) [Ac-Arg-cyclo(Orn-Asn-D-Phe(2-Me)-Arg-Trp-Glu)-NH2] as well?
5

Would you mind doing Ac-R[Orn]P[dPhe(2-F)]RWE-NH2 (lactam 2-7; SMILES CC(=O)N[C@@H](CCCNC(=N)N)C(=O)N[C@H]1CCCNC(=O)CC[C@@H](C(N)=O)NC(=O)[C@H](Cc2c[nH]c3ccccc23)NC(=O)[C@H](CCCNC(=N)N)NC(=O)[C@@H](Cc2ccccc2F)NC(=O)[C@@H]2CCCN2C1=O) [Ac-Arg-cyclo(Orn-Pro-D-Phe(2-F)-Arg-Trp-Glu)-NH2] as well?
7

Would you mind doing Ac-R[Orn]N[dPhe(3-Me)]RWE-NH2 (lactam 2-7, also called No. 72) [Ac-Arg-cyclo(Orn-Asn-D-Phe(3-Me)-Arg-Trp-Glu)-NH2] as well?
4

Would you mind doing XDQXRWK (N-terminal Ac; D-Arg 1; D-Phe(4-CN) 4; lactam Asp 2-Lys 7; C-terminal NH2, also called No. 81) [Ac-D-Arg-cyclo(Asp-Gln-D-Phe(4-CN)-Arg-Trp-Lys)-NH2] as well?
13

meta.source: patent US20100311648A1
